Origin of the recorded values: patent US9493426B2

# Kd per entry
- Study target: FGFR2 (Homo sapiens)
- Construct: purchased DiscoveRx Corporation
- Sequence (P21802 22-821): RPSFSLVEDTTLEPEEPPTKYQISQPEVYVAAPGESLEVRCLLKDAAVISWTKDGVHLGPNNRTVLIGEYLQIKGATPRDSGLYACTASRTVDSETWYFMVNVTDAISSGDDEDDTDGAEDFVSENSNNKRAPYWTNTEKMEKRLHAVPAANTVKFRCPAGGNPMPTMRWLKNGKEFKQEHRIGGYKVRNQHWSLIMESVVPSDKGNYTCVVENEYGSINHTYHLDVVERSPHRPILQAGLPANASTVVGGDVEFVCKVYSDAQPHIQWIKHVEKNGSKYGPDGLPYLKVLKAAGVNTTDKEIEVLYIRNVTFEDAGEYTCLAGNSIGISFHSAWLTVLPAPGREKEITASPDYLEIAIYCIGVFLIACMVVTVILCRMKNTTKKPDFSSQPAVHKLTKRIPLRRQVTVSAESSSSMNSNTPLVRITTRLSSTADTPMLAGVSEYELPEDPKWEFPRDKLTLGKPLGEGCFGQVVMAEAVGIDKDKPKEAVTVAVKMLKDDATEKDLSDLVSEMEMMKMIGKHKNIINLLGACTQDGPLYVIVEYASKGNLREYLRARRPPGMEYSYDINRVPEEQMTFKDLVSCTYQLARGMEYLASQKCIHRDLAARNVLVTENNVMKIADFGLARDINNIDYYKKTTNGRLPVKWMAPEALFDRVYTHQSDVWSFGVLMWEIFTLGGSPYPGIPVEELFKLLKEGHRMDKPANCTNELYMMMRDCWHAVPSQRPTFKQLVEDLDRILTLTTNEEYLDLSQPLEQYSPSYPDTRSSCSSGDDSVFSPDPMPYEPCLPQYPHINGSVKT
- Test name: Enzyme binding assay (KINOMEscan) FGFR2
- Measurement conditions: pKd = -log Kd (M), read-out: FGFR2_pKd (converted)
- Experimental: Enzyme Binding Assays (KINOMEscan®) Kinase enzyme binding affinities of compounds disclosed herein were determined using the KINOMEscan® technology performed by DiscoveRx Corporation, San Diego, Calif., USA (www.kinomescan.com).
Field: numeric (M). Do not append units.

>>> measured_value("COc1cc(OC)c(F)c(N(CCCO)c2ccc3ncn(C4CCNCC4)c(=O)c3c2)c1F [Compound 53]")
"3.16e-08"

Now for another entry.
Field: Kd (FGFR2 (Homo sapiens)). Entry: COc1cc(OC)c(F)c(N(CCO)c2ccc3ncn(-c4cncnc4)c(=O)c3c2)c1 [Compound 74]
1.26e-07
